- System: SNB-75 CNS
- TEST_PROTOCOL: NCI-60 one-dose screen, 48 h (100 = growth as untreated, 0 = no growth, -100 = all killed)
- TEST_PARAMETERS: 10 µM unless noted
- Experimental: Growth inhibition of the SNB-75 human tumor cell line is measured as a screen for anti-cancer activity. Cells are grown in 96 well plates and exposed to the test compound for 48 hours. Compounds are tested at a single concentration, which is 10^-5 M for most compounds. The reported endpoint is percent growth (GI% or GIPRCNT), where numbers from 0 - 100% represent growth inhibition, and numbers from -100% - 0 represent cell death. For example, a value of 40 represents 60% growth inhibition. […]
The panel holds about 83,000 compounds, 20% with a hit somewhere; the sample as a whole holds those more often. The source made the active and inactive calls. How the source made its calls: active means growth percent below 10; inactive means the rest.
OUTCOME_MEASURE: growth

Guide cases for growth, answers given:
COMPOUND: C=C1C(=O)O[C@H]2[C@H](O)[C@@H](C)CCC/C(C)=C/CC[C@@]3(C)O[C@@H]3C[C@@H]12
growth: 75.7% (inactive)
--
COMPOUND: COc1cc(OC)c(C(=O)/C=C/c2ccc(C#N)cc2)c(OC)c1
growth: 14.1% (inactive)

// for each compound in input: emit growth
1. N=C(N)c1ccc(-c2ccc(-c3ccc(Cl)cc3)o2)nc1
2. CCC(=O)Oc1ccc2c(c1)CC[C@@H]1[C@@H]2CC[C@]2(C)C[C@H](OC(=O)CC)C[C@@H]12
3. CC/C=C\C[C@H](O)C/C=C1/C(=O)C(Cl)=C[C@@H]1C/C=C\CCCC(=O)O

1. -97.8% (active)
2. 46% (inactive)
3. 71.7% (inactive)

* * *

- System: K-562 leukemia
- TEST_PROTOCOL: NCI-60 one-dose screen, 48 h (100 = growth as untreated, 0 = no growth, -100 = all killed)
- TEST_PARAMETERS: 10 µM unless noted
About 83,000 compounds went through this panel and 20% of them were active in at least one assay; those are over-represented in the sample as a whole.
Given measured growth, output fulfilled if it is greater than or equal to 50% and not fulfilled if not.

COMPOUND: O=C(OCCCCOC(=O)n1cnc2ccccc21)n1cnc2ccccc21
TESTED_ON: K-562 leukemia
LABEL_VALUE: fulfilled

COMPOUND: COc1cc2nc(N3CCC[C@@H](NC4=CC(=O)c5ccccc5C4=O)C3)nc(N)c2cc1OC
TESTED_ON: K-562 leukemia
LABEL_VALUE: not fulfilled

COMPOUND: CN(C)c1nc(N)c(N=O)c(N)n1
TESTED_ON: K-562 leukemia
LABEL_VALUE: fulfilled

Dear colleague, could you confirm whether O=C1N=C(c2c(-c3[nH]c(=O)c4ccc(Br)cc4c3O)c(O)c3ccccc3c2O)C(=O)c2cc(Br)ccc21 has growth at or above 50%? not fulfilled

For this compound, is measured growth 50% or higher? COc1cc(-c2nc(-c3nc4ccccc4[nH]3)cc3c2[nH]c2ccccc23)cc(OC)c1OC not fulfilled

Please indicate if the recorded growth for Cc1ccc2nc(-c3c(N)n[nH]c3CCCO)[nH]c(=O)c2c1 meets or exceeds 50%. fulfilled

Form field: growth at least 50%? Entry: COc1ccc(OC)c(C(=O)c2oc3ccc(Br)cc3c2N)c1 not fulfilled

Would you say Nc1nn2cc(-c3ccc(Cl)s3)nc2c2ccccc12 shows growth at minimum 50%? fulfilled

Is the recorded value of growth equal to or greater than 50% for this compound? O=S(=O)(NCCCNc1cc(-c2cn(-c3ccccc3)nc2-c2cccc(O)c2)ccn1)c1ccc(Cl)cc1 not fulfilled

Reported growth at or above 50%? c1ccc(CCn2nnc3c(Nc4ccc(N5CCOCC5)cc4)ncnc32)cc1 not fulfilled

Hi, just wondering whether COc1cc(OC)c(C(=O)/C=C/c2cccc(C(F)(F)F)c2)c(OC)c1 shows growth of 50% or higher. not fulfilled

* * *

- Test system: CAKI-1 renal
- TEST_PROTOCOL: NCI-60 one-dose screen, 48 h
- TEST_PARAMETERS: 10 µM unless noted
About 83,000 compounds went through this panel and 20% of them were active in at least one assay; those are over-represented in the sample as a whole. Active and inactive are the calls of the source. The calls were made as follows: active = growth percent below 10; inactive = the rest.
Please answer using one outcome listed in active, inactive

Here are 5 molecules together with their reported answers.
COMPOUND_STRUCTURE_STRING: CS(=O)(=O)N(c1cc(-c2ccc3ncnc(Nc4cccc(Cl)c4)c3c2)cnc1Cl)S(C)(=O)=O
LABEL_VALUE: active

COMPOUND_STRUCTURE_STRING: COc1ccc(-c2nnc(COc3ccc(NS(=O)(=O)c4ccc(OC)cc4)cc3F)o2)cc1
LABEL_VALUE: inactive

COMPOUND_STRUCTURE_STRING: COc1ccc(-c2nc3sccn3c2-c2ccnc(NCCCNS(=O)(=O)c3ccc4ccccc4c3)n2)cc1
LABEL_VALUE: inactive

COMPOUND_STRUCTURE_STRING: COc1cc(C(=O)N2CCN(C(=O)c3ccco3)CC2)c(N)cc1OCc1ccccc1
LABEL_VALUE: inactive

COMPOUND_STRUCTURE_STRING: Clc1nc2ccccc2nc1CI
LABEL_VALUE: inactive

Recorded call for COc1ccc2c(c1)NC(=O)CN2c1nc(C)nc2ccccc12 ? inactive

Returns: the outcome recorded for CC(C)[C@H](CO)Nc1nc(Nc2ccc(C(=O)NCCNS(=O)(=O)c3cccc4c(N(C)C)cccc34)c(Cl)c2)c2ncn(C(C)C)c2n1 in this assay. inactive

Please state the recorded outcome for this molecule: C=C1C(=O)O[C@H]2[C@H](O)[C@@H](C)CCC/C(C)=C/CC[C@@]3(C)O[C@@H]3C[C@@H]12 inactive

Hello, I am checking results. What call was entered for Nc1ccc(S(=O)(=O)c2ccc(Cl)cc2)cc1 ? inactive

* * *

- Tested on: SF-295 CNS
- TEST_PROTOCOL: NCI-60 one-dose screen, 48 h (100 = growth as untreated, 0 = no growth, -100 = all killed)
- TEST_PARAMETERS: 10 µM unless noted
The panel holds about 83,000 compounds, 20% with a hit somewhere; the sample as a whole holds those more often.
OUTCOME_MEASURE: growth (%)
Numbers only, in %.

Study these solved cases before continuing.
COMPOUND: O=P([O-])(O)OP(=O)([O-])O.[NH-][C@H]1CCCC[C@@H]1[NH-].[OH-].[OH-].[Pt+4]
TESTED_ON: SF-295 CNS
UNITS_SYMBOL: %
growth: 87.1

COMPOUND: COc1ccc(/C=C/c2nc(N3CCOCC3)c3nc(Cl)c(Cl)cc3n2)cc1OC
TESTED_ON: SF-295 CNS
UNITS_SYMBOL: %
growth: 87.9

COMPOUND: CC(C)C[C@H](NC(=O)[C@@H](Cc1ccccc1)n1ccc(Nc2ccccc2)cc1=O)B(O)O
TESTED_ON: SF-295 CNS
UNITS_SYMBOL: %
growth: -20.6

COMPOUND: Cc1ccc(Cn2c(-c3nonc3N)nc3ccccc32)cc1
TESTED_ON: SF-295 CNS
UNITS_SYMBOL: %
growth: 82.3

COMPOUND: CCCCCCCCCCCCCCCCCCOc1cccc(CCOP(=O)(O)OCC[N+](C)(C)C)c1
TESTED_ON: SF-295 CNS
UNITS_SYMBOL: %
growth: 87.2

// input: 5 compounds below; output: growth for each
1. COc1cc2nc(N3CCC[C@@H](NC4=CC(=O)c5ccccc5C4=O)C3)nc(N)c2cc1OC
2. CCC(c1ccc(OC)cc1)C(CC)c1ccc(O)c(CN2CCCC2)c1 (stereo not given)
3. CCSc1nnc(NC(=O)COc2ccc(Cl)cc2C)s1
4. O=C(Nc1ccc(Br)c(Cl)c1)c1cc(F)ccc1O
5. COC(=O)CCCCCCN=Cc1c(O)c(O)c(C(C)C)c2cc(C)c(-c3c(C)cc4c(C(C)C)c(O)c(O)c(C=NCCCCCCC(=O)OC)c4c3O)c(O)c12

1: -89; 2: -51.2; 3: 94.2; 4: -53.1; 5: 7.26

* * *

- Test system: T-47D breast
- TEST_PROTOCOL: NCI-60 one-dose screen, 48 h (100 = growth as untreated, 0 = no growth, -100 = all killed)
- TEST_PARAMETERS: 10 µM unless noted
About 83,000 compounds went through this panel and 20% of them were active in at least one assay; those are over-represented in the sample as a whole.
OUTCOME_MEASURE: growth (%)
One number for each entry, in %.

Field: example entries. Status: answers known.
MOLECULE: COc1ccc(/C=C/c2nc(N3CCOCC3)c3cc(F)c(F)cc3n2)cc1OC
OBSERVED: 6.31

MOLECULE: COc1cc(NCCCN=C(N)NC(N)=NC(C)C)c2ncccc2c1
OBSERVED: -2.75

MOLECULE: CC(=O)Oc1cccc(OC(C)=O)c1OC(C)=O
OBSERVED: 97.1

For each of the molecules below, note its growth.
1. CCOC(=O)C(Cc1ccccc1)n1c(O)c(C=Nc2ccc(C(=O)OCCN(CC)CC)cc2)sc1=O (centres undefined)
2. CCCCCCc1nc2c(c(C)nn2-c2ccccc2)c2c1CCCCC2
3. COc1ccc(-c2nc3sccn3c2-c2ccnc(NCCCNS(=O)(=O)c3ccc4ccccc4c3)n2)cc1
4. CCn1cc(C(=O)O)c(=O)c2cc(F)c(N3CCN(S(=O)(=O)c4ccc(OC)c(OC)c4)CC3)cc21
5. Cn1c(=O)c2c(nc3n2CCN(CCc2ccc(OCCN4CCOCC4)cc2)C3)n(C)c1=O

[81.6, 92.2, 32.6, 87.2, 93.6]

Hello, I am looking for reported growth with T-47D breast for Cc1cc2c(C(C)C)c(O)c(O)c(C=NCCCCC(=O)O)c2c(O)c1-c1c(C)cc2c(C(C)C)c(O)c(O)c(C=NCCCCC(=O)O)c2c1O . Could you help? 53.9
